Tested on: skeletal muscle ischemia/reperfusion injury
Test: Mouse hindlimb ischemia and reperfusion model, Evans Blue dye staining of gastrocnemius muscle, wild-type mice
Assay type: in vivo, mouse (C57BL6 wild-type)
Conditions: WT mice; ligand alone i.p. 2 h before 90 min ischemia, 24 h reperfusion; mean±SE; PBS vehicle 28%±6%
I'd appreciate it if you could supply EBD-positive area values for the items below.

Please give the measured EBD-positive area for this compound: CNC(=O)[C@H]1O[C@@H](n2cnc3c(NCc4cccc(I)c4)nc(Cl)nc32)[C@H](O)[C@@H]1O [Cl-IBMECA]
5.4%±2.6%

Returns the measured EBD-positive area for the input compound. Input: CCOC(=O)C1=C(C)NC(c2ccccc2)=C(C(=O)OCc2ccccc2)C1C#Cc1ccccc1 (racemic) [MRS1191]
23%±4.4%

Quick check: EBD-positive area of CCCn1c(=O)c2[nH]c(C3CCCC3)nc2n(CCC)c1=O [DPCPX] ?
19.3%±4.4%

Entry CCNC(=O)[C@H]1O[C@@H](n2cnc3c(N)nc(NCCc4ccc(CCC(=O)O)cc4)nc32)[C@H](O)[C@@H]1O [CGS21680] has what EBD-positive area?
6.6%±3.5%

Consider the compound OC[C@H]1O[C@@H](n2cnc3c(NC4CCCC4)nc(Cl)nc32)[C@H](O)[C@@H]1O [CCPA, 2-chloro-N^6-cyclopentyladenosine] and give its measured EBD-positive area.
10.8%±2%
